assayedSystem: T1, Y5R
T1 sequence (Q15761 whole entry, species assumed, looked up): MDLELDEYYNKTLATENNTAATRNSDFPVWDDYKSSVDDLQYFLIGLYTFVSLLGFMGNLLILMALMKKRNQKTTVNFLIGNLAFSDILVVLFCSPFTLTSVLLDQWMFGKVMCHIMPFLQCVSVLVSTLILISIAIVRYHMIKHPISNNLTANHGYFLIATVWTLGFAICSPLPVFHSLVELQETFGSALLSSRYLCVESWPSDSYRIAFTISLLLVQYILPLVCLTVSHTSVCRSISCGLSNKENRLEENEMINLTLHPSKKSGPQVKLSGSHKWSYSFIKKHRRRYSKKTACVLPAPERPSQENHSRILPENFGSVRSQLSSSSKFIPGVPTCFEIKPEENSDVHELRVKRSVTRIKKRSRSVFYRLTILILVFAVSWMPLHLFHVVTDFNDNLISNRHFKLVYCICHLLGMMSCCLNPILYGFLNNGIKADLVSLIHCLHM
testMethodNotes: cell-based or functional assay
Numbered stars: 1 amine (or outer) side, 2 acyl side, 3 side chain; on linkers, the order of the positions; unused ones are H or OH. Square brackets hold non-standard residues; d marks the D form. Primed or numbered codes have the meaning given here. HomPqa = 3-hydroxy-2-(4-oxo-6-piperazin-1-yl-4H-quinazolin-3-yl)-propionic acid, O=C(C(CO[*:3])n1cnc2ccc(N3CCN([*:1])CC3)cc2c1=O)[*:2]; Dqa = (6-[1,4]diazepan-1-yl-4-oxo-4H-quinazolin-3-yl)-acetic acid, O=C(Cn1cnc2ccc(N3CCCN([*:1])CC3)cc2c1=O)[*:2]; Appa = (6-Amino-2-piperazin-1-yl-9H-purin-8-yl)-acetic acid, Nc1nc(N2CCN([*:1])CC2)nc2[nH]c(CC(=O)[*:2])nc12; Cba′ = (4-Aminomethyl-biphenyl-3-yl)-acetic acid, O=C(Cc1cc(-c2ccccc2)ccc1CN[*:1])[*:2]; Bqa = ((1R,4S)-6-2-Aza-bicyclo[2.2.1]hept-5-yl-4-oxo-4H-quinazolin)-acetic acid; Ppa = (2-piperazin-1-yl-purin-7-yl)-acetic acid; NMeR = CN[C@@H](CCCNC(=N)N)C(=O)O

>  <binder>
Ac-IK[Ppa]RHYLNWVTRQ[NMeR]Y-NH2 [Ac-Ile-Lys-Ppa-Arg-His-Tyr-Leu-Asn-Trp-Val-Thr-Arg-Gln-(NMe)Arg-Tyr-NH2]

>  <readoutRelation>
=

>  <Y5R EC50 (nM) FLIPR>
1100

$$$$
>  <binder>
Ac-IK[Bqa]RHYLNWVTRQ[NMeR]Y-NH2 [Ac-Ile-Lys-Bqa-Arg-His-Tyr-Leu-Asn-Trp-Val-Thr-Arg-Gln-(NMe)Arg-Tyr-NH2]

>  <readoutRelation>
=

>  <Y5R EC50 (nM) FLIPR>
2870

$$$$
>  <binder>
Ac-IK[Appa]RHYLNWVTRQ[NMeR]Y-NH2 [Ac-Ile-Lys-Appa-Arg-His-Tyr-Leu-Asn-Trp-Val-Thr-Arg-Gln-(NMe)Arg-Tyr-NH2]

>  <readoutRelation>
=

>  <Y5R EC50 (nM) FLIPR>
3300

$$$$
>  <binder>
Ac-IK[Cba′]RHYLNWVTRQ[NMeR]Y-NH2 [Ac-Ile-Lys-Cba-Arg-His-Tyr-Leu-Asn-Trp-Val-Thr-Arg-Gln-(NMe)Arg-Tyr-NH2]

>  <readoutRelation>
>

>  <Y5R EC50 (nM) FLIPR>
30000

$$$$
>  <binder>
Ac-IK[HomPqa]RHYLNWVTRQ[NMeR]Y-NH2 [Ac-Ile-Lys-HomPqa-Arg-His-Tyr-Leu-Asn-Trp-Val-Thr-Arg-Gln-(NMe)Arg-Tyr-NH2]

>  <readoutRelation>
=

>  <Y5R EC50 (nM) FLIPR>
4940

$$$$
>  <binder>
Ac-IK[Dqa]RHYLNWVTRQ[NMeR]Y-NH2 [Ac-Ile-Lys-Dqa-Arg-His-Tyr-Leu-Asn-Trp-Val-Thr-Arg-Gln-(NMe)Arg-Tyr-NH2]

>  <readoutRelation>
=

>  <Y5R EC50 (nM) FLIPR>
6030

$$$$
